# Target: Endothelin-converting enzyme 1 (Homo sapiens) (UniProt P42892)
# Sequence (P42892 whole entry): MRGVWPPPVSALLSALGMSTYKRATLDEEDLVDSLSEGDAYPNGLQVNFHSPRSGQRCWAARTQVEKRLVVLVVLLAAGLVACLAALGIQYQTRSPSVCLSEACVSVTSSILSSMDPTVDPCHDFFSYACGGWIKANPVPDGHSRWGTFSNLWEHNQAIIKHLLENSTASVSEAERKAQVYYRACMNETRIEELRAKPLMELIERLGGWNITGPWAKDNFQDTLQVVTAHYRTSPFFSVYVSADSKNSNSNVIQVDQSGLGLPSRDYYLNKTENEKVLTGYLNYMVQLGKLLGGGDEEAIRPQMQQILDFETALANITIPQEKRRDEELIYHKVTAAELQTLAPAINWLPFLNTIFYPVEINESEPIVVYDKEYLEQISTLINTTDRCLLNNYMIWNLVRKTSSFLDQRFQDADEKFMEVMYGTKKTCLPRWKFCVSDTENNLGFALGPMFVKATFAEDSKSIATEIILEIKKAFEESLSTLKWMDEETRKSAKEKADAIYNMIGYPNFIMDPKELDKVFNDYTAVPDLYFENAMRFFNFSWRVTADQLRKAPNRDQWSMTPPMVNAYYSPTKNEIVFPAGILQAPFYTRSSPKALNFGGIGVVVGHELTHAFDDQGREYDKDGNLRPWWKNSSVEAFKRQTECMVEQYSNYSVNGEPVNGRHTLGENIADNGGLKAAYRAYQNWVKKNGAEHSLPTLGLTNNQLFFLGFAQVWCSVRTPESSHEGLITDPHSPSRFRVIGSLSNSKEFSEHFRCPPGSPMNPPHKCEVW
# Method Description: Inhibition of Endothelin-converting enzyme 1 activity at a concentration of 1 uM
Value Type: inhibition

Quick one: inhibition for NCCCCC(N[C@@H](Cc1ccc2c(c1)oc1ccccc12)C(=O)O)P(=O)(O)O (stereo in doubt; 40o') ?
84%

I would be grateful if you could share the reported inhibition for NCCCCC(N[C@@H](Cc1ccc2c(c1)oc1ccccc12)C(=O)O)P(=O)(O)O (stereo in doubt; 40p') .
19%

Which inhibition value belongs to O=P(O)(O)C(CCc1cccc2ccccc12)N[C@@H](Cc1ccc2c(c1)oc1ccccc12)c1nnn[nH]1 (stereo in doubt; 43b') ?
73%

What value of inhibition has been reported for the following molecule? CC(NC(=O)[C@H](Cc1ccc2c(c1)oc1ccccc12)NCP(=O)(O)O)C(=O)O (stereo partly specified)
35%

Please report the recorded inhibition for O=C(NCCc1ccccc1)[C@H](Cc1ccc2c(c1)oc1ccccc12)NCP(=O)(O)O .
29%

Quick one: inhibition for O=P(O)(O)C(CCc1cccc2ccccc12)N[C@@H](Cc1ccc2c(c1)oc1ccccc12)c1nnn[nH]1 (stereo in doubt; 43a') ?
98%

Given the entry O=C(O)[C@H](Cc1ccc2c(c1)oc1ccccc12)NC(CCc1cccc2cccnc12)P(=O)(O)O (stereo in doubt; 40m') , report its measured inhibition.
94%

Could you share which inhibition value was measured for CC(C)CC(NC(=O)[C@H](Cc1ccc2c(c1)oc1ccccc12)NCP(=O)(O)O)C(=O)O (stereo partly specified) ?
92%

inhibition lookup needed for O=C(O)CNC(=O)[C@H](Cc1ccc2c(c1)oc1ccccc12)NCP(=O)(O)O , thanks.
43%

Entry under review: CC(N[C@@H](Cc1ccc2c(c1)oc1ccccc12)C(=O)O)P(=O)(O)O (stereo in doubt; 40u) . Reported inhibition?
88%

Quick one: inhibition for NCCCC(N[C@@H](Cc1ccc2c(c1)oc1ccccc12)C(=O)O)P(=O)(O)O (stereo in doubt; 40q') ?
73%

Any idea what inhibition was measured for O=C(O)[C@H](Cc1ccc2c(c1)oc1ccccc12)NC(CCc1cccc2ccccc12)P(=O)(O)O (stereo in doubt; 40a') ?
95%

Name the recorded inhibition for COc1cc(CCC(N[C@@H](Cc2ccc3c(c2)oc2ccccc23)C(=O)O)P(=O)(O)O)cc(OC)c1OC (stereo partly specified) .
92%

Suppose we examine the molecule COc1ccc(CCC(N[C@@H](Cc2ccc3c(c2)oc2ccccc23)C(=O)O)P(=O)(O)O)cc1OC (stereo in doubt; 40e') ; what inhibition value has been reported?
93%

Bench note: what inhibition did COc1ccc(CCC(N[C@@H](Cc2ccc3c(c2)oc2ccccc23)C(=O)O)P(=O)(O)O)c(OC)c1OC (stereo in doubt; 40k') show?
91%

What value of measured inhibition is listed for CC(N[C@@H](Cc1ccc2c(c1)oc1ccccc12)C(=O)O)P(=O)(O)O (stereo in doubt; 40v) ?
81%

Given the entry O=C(O)[C@H](Cc1ccc2c(c1)oc1ccccc12)NC(=O)[C@H](Cc1ccc2c(c1)oc1ccccc12)NCP(=O)(O)O , report its measured inhibition.
95%

Quick check: inhibition of COc1ccc(CCC(N[C@@H](Cc2ccc3c(c2)oc2ccccc23)C(=O)O)P(=O)(O)O)cc1OC (stereo in doubt; 40f ') ?
58%

Consider the molecule O=C(O)[C@H](Cc1ccc2c(c1)oc1ccccc12)NC(CCc1cccc2ccccc12)P(=O)(O)O (stereo in doubt; 40b') and give its measured inhibition.
34%

Entry COc1cccc(CCC(N[C@@H](Cc2ccc3c(c2)oc2ccccc23)C(=O)O)P(=O)(O)O)c1OC (stereo in doubt; 40c) has what inhibition?
95%

Look at this molecule and give its reported inhibition. COc1cc(OC)c(OC)cc1CCC(N[C@@H](Cc1ccc2c(c1)oc1ccccc12)C(=O)O)P(=O)(O)O (stereo in doubt; 40i')
91%

// inhibition lookup, key: CC(C)CCCC(N[C@@H](Cc1ccc2c(c1)oc1ccccc12)C(=O)O)P(=O)(O)O (stereo partly specified)
89%

Tell me the measured inhibition of O=C(O)C(Cc1ccccc1)NC(=O)[C@H](Cc1ccc2c(c1)oc1ccccc12)NCP(=O)(O)O (stereo partly specified) , please.
91%

Look up inhibition for this molecule: O=C(O)[C@H](Cc1ccc2c(c1)oc1ccccc12)NCP(=O)(O)O
92%

Entry NCCCC(N[C@@H](Cc1ccc2c(c1)oc1ccccc12)C(=O)O)P(=O)(O)O (stereo in doubt; 40r') has what inhibition?
29%

I have this molecule here, O=C(NCCc1ccc(-c2ccccc2)cc1)[C@H](Cc1ccc2c(c1)oc1ccccc12)NCP(=O)(O)O , and I need its recorded inhibition.
5%
